# experimental system: T1, human Fc-PD-L1 (R&D systems) (human, UniProt Q9NZQ7 19-239)
# T1 construct: Bought Fc fusion coated on the ELISA plate; also called human PD-L1; not shown: Fc part of the bought fusion protein
# T1 sequence (Q9NZQ7 19-239 limits assumed): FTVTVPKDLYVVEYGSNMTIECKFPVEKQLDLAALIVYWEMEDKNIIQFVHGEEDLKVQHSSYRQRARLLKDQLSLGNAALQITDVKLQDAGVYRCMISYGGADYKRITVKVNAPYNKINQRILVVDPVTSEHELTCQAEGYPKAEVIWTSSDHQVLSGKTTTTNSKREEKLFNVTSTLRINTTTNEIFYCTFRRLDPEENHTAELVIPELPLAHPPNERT
# assay comment: competition ELISA on coated human Fc-PD-L1; competitor biotinylated 29E.2A3
Task for the reader: assign each of the following binders its reported IC50.
Answers are plain numbers, in µg/mL.

Reference set, count: 3
Quickly give me recorded IC50 for 29E.2A3 composite, human antibody VH2/VK1 (antibody, V domains shown, V regions cloned into vectors containing human constant regions (quantified against an IgG1/kappa standard; isotype not expressly stated)) VH: EVQLVQSGAEVKKPGASVKMSCKASGYTFTSYVMHWVKQAPGQRLEWIGYVNPFNDGTKYNEMFKGRATLTSDKSTSTAYMELSSLRSEDTAVYYCARQAWGYPWGQGTLVTVSS VL: DIVLTQSPASLALSPGERATLSCRATESVEYYGTSLVQWYQQKPGQPPKLLIYAASSVDSGVPSRFSGSGSGTDFTLTINSLEEEDAAMYFCQQSRRVPYTFGQGTKLEIK
0.27

Recall and state the measured IC50 for mouse anti-human PD-L1 antibody 29E.2A3 (antibody, V domains shown, Mouse monoclonal antibody; also called Biotin-29E.2A3) VH: EVQLQQSGPELVKPGASVKMSCKASGYTFTSYVMHWVKQKPGQGLEWIGYVNPFNDGTKYNEMFKGKATLTSDKSSSTAYMELSSLTSEDSAVYYCARQAWGYPWGQGTLVTVSA VL: DIVLTQSPASLAVSLGQRATISCRATESVEYYGTSLVQWYQQKPGQPPKLLIYAASSVDSGVPARFSGSGSGTDFSLTIHPVEEDDIAMYFCQQSRRVPYTFGGGTKLEIK .
0.28

Write down IC50 measured for item 29E.2A3 composite, human antibody VH4/VK2 (antibody, V domains shown, V regions cloned into vectors containing human constant regions (quantified against an IgG1/kappa standard; isotype not expressly stated)) VH: EVQLVQSGAEVKKPGASVKVSCKASGYTFTSYVMHWVRQAPGQRLEWIGYVNPFNDGTKYNEMFKGRATLTSDKSTSTAYMELSSLRSEDTAVYYCARQAWGYPWGQGTLVTVSS VL: DIVLTQSPATLSLSPGERATLSCRATESVEYYGTSLVQWYQQKPGQPPKLLIYAASSVDSGVPSRFSGSGSGTDFTLTINSLEAEDAAMYFCQQSRRVPYTFGQGTKLEIK
0.38

Next:
Output measured IC50 for this item: 29E.2A3 composite, human antibody VH2/VK2 (antibody, V domains shown, V regions cloned into vectors containing human constant regions (quantified against an IgG1/kappa standard; isotype not expressly stated)) VH: EVQLVQSGAEVKKPGASVKMSCKASGYTFTSYVMHWVKQAPGQRLEWIGYVNPFNDGTKYNEMFKGRATLTSDKSTSTAYMELSSLRSEDTAVYYCARQAWGYPWGQGTLVTVSS VL: DIVLTQSPATLSLSPGERATLSCRATESVEYYGTSLVQWYQQKPGQPPKLLIYAASSVDSGVPSRFSGSGSGTDFTLTINSLEAEDAAMYFCQQSRRVPYTFGQGTKLEIK
0.49
